Please find below IC50 data on UniProt:O60674 compiled from the literature.

Study these solved cases before continuing.
Fill in: UniProt:O60674 IC50 for Cn1cc(Nc2ncnc(-c3ccc(N4CCCC4)c(C#N)c3)n2)cn1 = 278 nM

Fill in: UniProt:O60674 IC50 for Cc1cc2ccc1-c1nc(ncc1C)Nc1ccc(F)c(c1)COCCCCNC2=O = 1000 to 10000 nM

---
Fill in: UniProt:O60674 IC50 for N#Cc1cc(-c2ncnc(Nc3ccc(C4CCN(CC(F)F)CC4)cc3)n2)ccc1OC1CCOCC1 = > 1000 nM

Fill in: UniProt:O60674 IC50 for Cc1c(Cl)cccc1OC[C@H](O)CNc1cc[nH]c(=O)c1-c1nc2c(C)c3c(cc2[nH]1)C(=O)N(C1CCN(C)CC1)C3=O = 500 to 5000 nM

Fill in: UniProt:O60674 IC50 for C[C@H]1CN(c2ccc(Nc3ncnc(-c4ccc(O[C@H]5CCN(C(=O)[C@@H]6CCC(=O)N6)C[C@H]5F)c(C#N)c4)n3)cc2)CCN1C1COC1 = 904 nM

Fill in: UniProt:O60674 IC50 for N#CCC1(n2cc(-c3ncnc4[nH]ccc34)cn2)CN(C2CCN(C(=O)c3cncc(C(F)(F)F)n3)CC2)C1 = 50 to 100 nM

Fill in: UniProt:O60674 IC50 for Cn1ccc(Nc2ncnc(-c3ccc(OC4CCOCC4)c(C#N)c3)n2)n1 = > 1000 nM

Fill in: UniProt:O60674 IC50 for O=C1NCCCCOCc2cc(ccc2OCC2COC2)Nc2nccc(n2)-c2ccc1cc2[N+](=O)[O-] = 1000 to 10000 nM

Fill in: UniProt:O60674 IC50 for N#Cc1cc(-c2ncnc(Nc3ccc(N4CCN(C5COC5)CC4)cc3)n2)ccc1N1CCC2(CCOC2)CC1 = ≥ 1000 nM

Fill in: UniProt:O60674 IC50 for NC(=O)c1cc(-c2ccc(Cl)c(Cl)c2)cc2c1[nH]c1ccc(C(=O)N3CCOC(CO)C3)cc12 (centres unmarked) = 2 nM

Fill in: UniProt:O60674 IC50 for COc1cccc(NC(=O)N2CCC(N3CC(CC#N)(n4cc(-c5ncnc6[nH]ccc56)cn4)C3)CC2)c1 = 10 to 50 nM

Fill in: UniProt:O60674 IC50 for Cc1ccc(NC(=O)c2cc(C(F)(F)F)ccn2)cc1N1CCc2nc(Nc3ccc(C(=O)N4CCN(C)CC4)cc3)ncc2C1=O = 70 nM

Fill in: UniProt:O60674 IC50 for CN(c1ccccc1Cn1ccc2cnc(Nc3ccc(N4CCNCC4)cc3)nc21)S(C)(=O)=O = < 20 nM

Fill in: UniProt:O60674 IC50 for C=CC(=O)Nc1cccc(Cn2ccc3cnc(Nc4cnn(CC(=O)OCC)c4)nc32)c1 = 100 to 1000 nM

Fill in: UniProt:O60674 IC50 for N#CCC(C1CCCC1)n1cc(-c2ccnc(Nc3ccc(NC(=O)CN4CCNC(=O)C4)cc3)n2)cn1 (racemic) = < 100 nM

Fill in: UniProt:O60674 IC50 for CCN(c1ccccc1CNc1nc(-c2cc(F)c(O)cc2CC(F)(F)F)cc2[nH]nc(C(N)=O)c12)S(C)(=O)=O = 18.1 nM

Fill in: UniProt:O60674 IC50 for CN(C)CC(C)(C)CN1C(=O)c2cc3nc(-c4c(NC[C@@H](O)c5cccc(Cl)c5)ccnc4O)[nH]c3cc2C1=O = 500 to 5000 nM

Fill in: UniProt:O60674 IC50 for CCC(CC)n1cc(-c2nc(-c3cnn(C4CN(C(=O)C5(O)CC5)C4)c3)cn3nccc23)cn1 = 10 to 100 nM

Fill in: UniProt:O60674 IC50 for N#CCC(=O)N1CC2CCN(Nc3ncnc4[nH]ccc34)CC2C1 (centres unmarked) = > 1000 nM

Fill in: UniProt:O60674 IC50 for N#Cc1cc(-c2ncnc(Nc3ccc(C4CCN(C5COC5)CC4)cc3)n2)ccc1OC1CCN(C(=O)CO)CC1 = > 1000 nM
